systemUnderTest: Norepinephrine Transporter (NET) (Rattus norvegicus)
Format: biochemical
setupConditions: read-out: EC50, (nM ± SD) NET; release of [3H]MPP+ from rat brain synaptosomes; mean±SD (n=3)
List of EC50 values.
Please state the figure in nM; there is no need to write the unit.

compound: C[C@@H](N)CC#Cc1ccccc1
EC50 [nM]: 496

compound: C[C@H](N)CC#Cc1ccccc1
EC50 [nM]: 784

The measured EC50 associated with C[C@H](N)C/C=C\c1ccccc1 reads 170

// sample CC(N)C/C=C\c1ccccc1 (racemic) , its EC50 was 621

Item: CC(N)/C=C\c1ccccc1 (centres unmarked) | EC50: 301

Value of measured EC50 for the entry CC(N)C/C=C/c1ccccc1 (racemic) : 239

Record CC(N)/C=C/c1ccccc1 (centres unmarked) . Reported EC50: 308

Noted for C[C@@H](N)C/C=C/c1ccccc1 : its EC50 reads 279

Looking up C[C@@H](N)C/C=C\c1ccccc1 , I found its EC50 recorded as 211

According to the records, this compound C[C@H](N)C/C=C/c1ccccc1 displays EC50 of 138

Record CC(N)CC#Cc1ccccc1 (racemic) . Reported EC50: 2980
